# reported SAM residual rate; entries follow
test: Stabilizing agent: dried yeast cells containing SAM with added compound preserved at 25° C. for 7 days; type: physicochemical; settings: compound added at 30% by weight to dried yeast cells; 25° C., 7 days
Structures can show the parent of a compound that is named as a salt.

Molecule: C[C@@H](O)[C@H](N)C(=O)O [L-threonine]
SAM residual rate: 92.0%
//
Molecule: N.N.O=S(=O)(O)O [Ammonium sulfate]
SAM residual rate: 87.5%
//
Molecule: CC(=O)N[C@H]1C(O)O[C@H](CO)[C@@H](O)[C@@H]1O (stereo partly drawn) [N-acetylglucosamine]
SAM residual rate: 97.6%
//
Molecule: Cc1ncc(C[n+]2csc(CCO)c2C)c(N)n1 [thiamine hydrochloride]
SAM residual rate: 99.5%
//
Molecule: O=C(CO)[C@@H](O)[C@H](O)[C@@H](O)CO [L-sorbose]
SAM residual rate: 88.4%
//
Molecule: OC[C@@H](O)[C@@H](O[C@@H]1O[C@H](CO)[C@H](O)[C@H](O)[C@H]1O)[C@H](O)[C@@H](O)CO [Lactitol]
SAM residual rate: 91.3%
//
Molecule: CCC(N)C(=O)O (racemic) [DL-α-amino-n-butyrate]
SAM residual rate: 96.8%
//
Molecule: OC[C@H]1O[C@@](CO)(O[C@H]2O[C@H](CO)[C@@H](O)[C@H](O)[C@H]2O)[C@@H](O)[C@@H]1O [Sucrose]
SAM residual rate: 93.8%
//
Molecule: OC[C@@H](O)[C@@H](O)[C@H](O)[C@H](O)CO [Mannitol]
SAM residual rate: 86.8%
//
Molecule: C[C@H](N)C(=O)O [L-alanine]
SAM residual rate: 86.9%
//
Molecule: O=S(=O)([O-])[O-].[Mn+2] [Manganese sulfate]
SAM residual rate: 95.0%
//
Molecule: CSCC[C@H](N)C(=O)O [L-methionine]
SAM residual rate: 100.9%
//
Molecule: OC[C@@H](O)[C@H](O)[C@H](O)[C@@H](O)CO [Dulcitol]
SAM residual rate: 92.2%
//
Molecule: O=C1O[C@H](CO)[C@@H](O)[C@H](O)[C@H]1O [Glucono-δ-lactone]
SAM residual rate: 100.7%
//
Molecule: O=C(O)c1cccnc1 [Nicotinic acid]
SAM residual rate: 102.3%
//
Molecule: NC(=O)c1cccnc1 [Nicotinic-acid amide]
SAM residual rate: 97.3%
//
Molecule: O=C(O)[C@H](O)[C@@H](O)C(=O)O [L-tartaric acid]
SAM residual rate: 88.1%
//
Molecule: O=C([O-])[C@H](O)[C@@H](O)[C@H](O)[C@H](O)CO.[Na+] [Sodium gluconate]
SAM residual rate: 89.1%
//
Molecule: OC[C@@H](O)[C@H](O)[C@H](O)[C@@H](O)CO [Galactitol]
SAM residual rate: 90.7%
//
Molecule: O=P(O)(O)O [Phosphoric acid]
SAM residual rate: 89.3%
//
Molecule: O=C1O[C@H]([C@@H](O)CO)C(O)=C1O [L-ascorbic acid]
SAM residual rate: 90.0%
